Origin of measurements: ChEMBL document CHEMBL1208728

Test system: Escherichia coli
assay-method-text: Antimicrobial activity against Escherichia coli ATCC 35218 by MTT assay
Assay type: functional
experimental-readout: MIC (µg/mL)
Respond numerically; units are µg/mL and should not be typed.

// solved cases for MIC follow
compound	system	MIC / µg/mL
COc1ccc(C2=NN(C(C)=O)C(c3ccccc3)C2)cc1 (stereo unspecified)	Escherichia coli	25
CC(=O)N1N=C(c2ccc(Cl)cc2)CC1c1ccc(Br)cc1 (stereo unspecified)	Escherichia coli	12.5

Kindly consider the entry below.
Record request: MIC value, item CC(=O)N1N=C(c2ccc(Cl)cc2)CC1c1ccc(F)cc1 (stereo unspecified) 25

###

Test system: Enterococcus faecalis
assay-method-text: Antimicrobial activity against Streptococcus faecalis ATCC 9790 by MTT assay
Format: functional
experimental-readout: MIC (µg/mL)
Respond numerically; units are µg/mL and should not be typed.

compound	unit-of-measurement	observed-value
CC(=O)N1N=C(c2ccccc2F)CC1c1ccc(F)cc1 (configuration not stated)	µg/mL	50
COc1ccc(C2=NN(C(C)=O)C(c3ccc(C)cc3)C2)cc1 (configuration not stated)	µg/mL	25
CC(=O)N1N=C(c2ccc(Br)cc2)CC1c1ccc(Cl)cc1 (configuration not stated)	µg/mL	6.25
CC(=O)N1N=C(c2ccc(Br)cc2)CC1c1ccc(Br)cc1 (configuration not stated)	µg/mL	25
CC(=O)N1N=C(c2ccc(Cl)c(Cl)c2)CC1c1ccc(Cl)cc1 (configuration not stated)	µg/mL	6.25
CC(=O)N1N=C(c2ccc(Br)cc2)CC1c1ccc(F)cc1 (configuration not stated)	µg/mL	1.56
COc1ccc(C2=NN(C(C)=O)C(c3ccccc3)C2)cc1 (configuration not stated)	µg/mL	50
CC(=O)N1N=C(c2ccc(C)c(C)c2)CC1c1ccccc1 (configuration not stated)	µg/mL	25
COc1cc(OC)cc(C2CC(c3ccc(C)c(C)c3)=NN2C(C)=O)c1 (configuration not stated)	µg/mL	12.5
COc1ccc(C2=NN(C(C)=O)C(c3ccccc3Cl)C2)cc1 (configuration not stated)	µg/mL	12.5

Record request: MIC value, item COc1cc(OC)cc(C2CC(c3ccccc3F)=NN2C(C)=O)c1 (configuration not stated) 12.5

Record request: MIC value, item COc1cc(OC)cc(C2CC(c3ccccc3)=NN2C(C)=O)c1 (configuration not stated) 25

Record request: MIC value, item CC(=O)N1N=C(c2ccccc2)CC1c1ccc(Cl)cc1 (configuration not stated) 12.5

Record request: MIC value, item CC(=O)N1N=C(c2ccccc2)CC1c1ccc(Br)cc1 (configuration not stated) 12.5

Record request: MIC value, item CC(=O)N1N=C(c2ccc(Cl)cc2)CC1c1ccccc1Cl (configuration not stated) 50

Record request: MIC value, item COc1ccc(C2=NN(C(C)=O)C(c3ccc(F)cc3)C2)cc1 (configuration not stated) 1.56

Record request: MIC value, item COc1ccc(C2=NN(C(C)=O)C(c3cc(OC)cc(OC)c3)C2)cc1 (configuration not stated) 50

Record request: MIC value, item CC(=O)N1N=C(c2ccc(Cl)c(Cl)c2)CC1c1ccc(F)cc1 (configuration not stated) 1.56

Record request: MIC value, item CC(=O)N1N=C(c2ccc(Cl)c(Cl)c2)CC1c1ccccc1 (configuration not stated) 12.5

Record request: MIC value, item CC(=O)N1N=C(c2ccccc2)CC1c1ccccc1 (configuration not stated) 12.5

Record request: MIC value, item CC(=O)N1N=C(c2ccc(Cl)cc2)CC1c1ccc(C)cc1 (configuration not stated) 25

Record request: MIC value, item COc1ccc(C2=NN(C(C)=O)C(c3ccc(Br)cc3)C2)cc1 (configuration not stated) 3.12

Record request: MIC value, item COc1ccc(C2=NN(C(C)=O)C(c3ccc(OC)cc3)C2)cc1 (configuration not stated) 12.5

Record request: MIC value, item CC(=O)N1N=C(c2ccc(C)c(C)c2)CC1c1ccc(Cl)cc1 (configuration not stated) 50

Record request: MIC value, item CC(=O)N1N=C(c2ccc(Br)cc2)CC1c1ccccc1 (configuration not stated) 25

Record request: MIC value, item CC(=O)N1N=C(c2ccc(Cl)c(Cl)c2)CC1c1ccc(Br)cc1 (configuration not stated) 3.12

Record request: MIC value, item CC(=O)N1N=C(c2ccc(Cl)cc2)CC1c1ccccc1 (configuration not stated) 25

Record request: MIC value, item CC(=O)N1N=C(c2ccc(Cl)cc2)CC1c1ccc(Br)cc1 (configuration not stated) 6.25

Record request: MIC value, item COc1cc(OC)cc(C2CC(c3ccc(Cl)cc3)=NN2C(C)=O)c1 (configuration not stated) 50

Record request: MIC value, item CC(=O)N1N=C(c2ccccc2F)CC1c1ccc(Br)cc1 (configuration not stated) 25

Record request: MIC value, item CC(=O)N1N=C(c2ccccc2F)CC1c1ccccc1 (configuration not stated) 25

Record request: MIC value, item COc1ccc(C2CC(c3ccccc3)=NN2C(C)=O)cc1 (configuration not stated) 50

Record request: MIC value, item CC(=O)N1N=C(c2ccccc2)CC1c1ccccc1Cl (configuration not stated) 25

Record request: MIC value, item CC(=O)N1N=C(c2ccc(C)c(C)c2)CC1c1ccc(C)cc1 (configuration not stated) 12.5

Record request: MIC value, item COc1ccc(C2CC(c3ccc(Cl)cc3)=NN2C(C)=O)cc1 (configuration not stated) 25
